# EXPERIMENTAL TARGET: Luciferin 4-monooxygenase (Photinus pyralis)
# ASSAY NAME: Counterscreen Assay for Enhancers of SMN2 Splice Variant Expression: Interaction with Luciferase Reporter
# PROTOCOL CONDITIONS: purified firefly luciferase, luminescence, 5 min; series mostly up to 40.3 µM
Results filed as inconclusive are left out. Activity calls are given as the source filed them. The call rests on the fitted dose curve; in most records, active means well fitted inhibition curve with a large enough effect; inconclusive means small, poorly fitted or top-dose-only effect; inactive means flat fitted curve, though single readings scatter.

{"columns": ["MOLECULE", "activity change, negative = inhibition"],
 "data": [
  ["FC(F)(F)c1cccc(-c2nnc(-c3ccccc3)c(N3CCOCC3)n2)c1", "inactive"],
  ["CCC(=O)n1nc(NCc2ccccc2OC)nc1NCc1ccccc1OC", "-6.75% [at 48.7 pM] (inactive)"],
  ["COC(=O)C1=C(C)NC(=O)/C1=C\\c1cc(C)n(-c2ccccc2F)c1C", "8.15% [at 48.7 pM] (inactive)"],
  ["Nn1c(SCC(=O)NCCC2=CCCCC2)nnc1C1CCCCC1", "2.17% [at 48.7 pM] (inactive)"],
  ["COc1ccc(OC)c(-c2csc(N3CCC(c4ccccc4)CC3)n2)c1", "inactive"],
  ["CCCc1sc(N2CCCC(C(N)=O)C2)nc1-c1ccccc1 (stereo not drawn)", "inactive"],
  ["CC(/C=C/C(=O)NO)=C\\[C@@H](C)C(=O)c1ccc(N(C)C)cc1", "inactive"],
  ["CCC1=Nc2ccccc2-c2nnc(SC)nc2O1", "inactive"]
]}
